- STUDY TARGET: V2 (Homo sapiens)
- Sequence (P30518 whole entry): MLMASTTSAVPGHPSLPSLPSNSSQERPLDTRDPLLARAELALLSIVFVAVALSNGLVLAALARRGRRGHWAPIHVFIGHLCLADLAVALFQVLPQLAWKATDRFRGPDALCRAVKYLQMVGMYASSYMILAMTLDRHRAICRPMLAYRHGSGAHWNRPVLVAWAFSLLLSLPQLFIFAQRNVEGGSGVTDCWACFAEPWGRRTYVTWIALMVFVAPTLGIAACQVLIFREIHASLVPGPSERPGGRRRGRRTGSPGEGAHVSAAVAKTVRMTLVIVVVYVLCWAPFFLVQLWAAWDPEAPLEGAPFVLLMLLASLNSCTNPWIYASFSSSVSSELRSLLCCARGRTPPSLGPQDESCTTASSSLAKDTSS
- MEASUREMENT PROTOCOL: In vitro recombinant vasopressin receptor binding assay (V2 Bdg), displacement of 3H-arginine vasopressin
- Set-up: expressed in transfected cells; host or cells: HEK-293
- PROTOCOL CONDITIONS: membrane with cloned human V-2 receptor (HEK-293)
Sorting guide: entries reporting IC50 beneath 0.01 µM go in the true (1) pile, the rest go in the false (0) pile.

COc1cc(C(=O)N2CC3COCCN3Cc3ccccc32)ccc1NC(=O)c1ccccc1-c1ccccc1 (racemic) = false (0)
O=C(Nc1ccc(C(=O)N2CC3CSCCN3Cc3ccccc32)c(Cl)c1)c1ccc(F)cc1-c1ccccc1 (racemic) = true (1)
Cc1cc(NC(=O)c2ccccc2-c2ccccc2)ccc1C(=O)N1CC2COCCN2Cc2ccccc21 (racemic) = true (1)

Is IC50 strictly under 0.01 µM for the entry `O=C(Nc1ccc(C(=O)N2C[C@H]3COCCN3Cc3ccccc32)c(Cl)c1)c1ccccc1-c1ccc(O)cc1` ?
true (1)

Is IC50 strictly under 0.01 µM for the entry Cc1ccccc1C(=O)Nc1ccc(C(=O)N2CC3COCCN3Cc3ccccc32)c(Cl)c1 (racemic) ?
false (0)

Is IC50 strictly under 0.01 µM for the entry COc1ccc(-c2ccccc2C(=O)Nc2ccc(C(=O)N3CC4COCCN4Cc4ccccc43)c(Cl)c2)cc1 (racemic) ?
true (1)

Is IC50 strictly under 0.01 µM for the entry COc1cc(NC(=O)c2ccccc2-c2ccccc2)ccc1C(=O)N1CC2COCCN2Cc2ccccc21 (racemic) ?
true (1)

Is IC50 strictly under 0.01 µM for the entry Cc1cccc(C(=O)Nc2ccc(C(=O)N3CC4COCCN4Cc4ccccc43)c(Cl)c2)c1C (racemic) ?
true (1)

Reference source for all entries: patent US6713475B2
